assay: in vitro; design: Viability of infected HeLa host cells, resazurin conversion, bulk resorufin fluorescence relative to DMSO; settings: human, hela cells; bulk resorufin, mean of 3
metric: viability at 28.5 h, 0.00125 µM (%)
Please give a number only; it is taken to be in %.

compound | value-units | viability at 28.5 h, 0.00125 µM
COc1ccc(CC(=O)N2CCCC(c3nc(C)c4c(n3)N(CC3CC3)CCC4)C2)cc1 (stereo not shown) [c52e] | % | 91.1
Oc1ccccc1Nc1nc(NC2CCCC2)c2ccccc2n1 [c49e] | % | 94.9
CN(C)c1ccc(Nc2nc(NCCO)c3ccccc3n2)cc1 [c27e] | % | 89.2
O=C(c1ccc(-c2ccc(F)cc2)o1)N1C[C@H]2CC[C@](O)(c3ccc(F)cc3)[C@H]2C1 | % | 85.8
O=C(Nc1ccc(OC(F)(F)F)cc1)Nc1cc(-c2cccs2)n[nH]1 [c26e] | % | 100

[in] Give the reported value of viability at 28.5 h, 0.00125 µM for this record: COc1ccc([C@@H]2CN(C)C[C@H]2NC(=O)Nc2ccc(Cl)c(Cl)c2)cc1OC [c39e]
[out] 88.4

[in] Indicate the recorded viability at 28.5 h, 0.00125 µM value for this compound: COCCNc1nc2c(c(N3CCCCCC3)n1)CCNCC2 [c18e]
[out] 109

###

assay: in vitro; conditions: human, hela cells, % viability
metric: viability at 28.5 h, 10 µM (%)
The reply should contain only the number, in %.

molecule | viability at 28.5 h, 10 µM, %
Cc1cc(Oc2ccc(N(C)C)cc2)cc(C2CCCNC2)n1 (centres unmarked) | 101
Cc1onc(-c2ccccc2)c1-c1n[nH]c(=S)o1 | 76.7
Cc1onc(-c2ccccc2)c1CNC(=O)c1cccnc1 | 111
COc1ccc(N(CC(=O)Nc2cccc3cccnc23)S(=O)(=O)c2ccc(C)cc2)cc1 | 74

[in] Read off the recorded viability at 28.5 h, 10 µM for OC(Cn1ccc2ccccc21)Cn1c(Cc2ccccc2)nc2ccccc21 (centres unmarked)
[out] 97.7

###

test: in vitro; conditions: human, hela cells, % viability
metric: viability at 28.5 h, 10 µM (%)
Record the value in %, omitting the unit from your answer.

[in] Return viability at 28.5 h, 10 µM (reported value) for this compound: COc1ccccc1Nc1nc(N)nc(CSc2nccn2C)n1
[out] 95

[in] Please report viability at 28.5 h, 10 µM for the following compound: CC1=C(C#N)c2nc(N)c(C#N)c(C)c2/C1=C\c1ccc(-c2ccc(C(=O)O)cc2)o1
[out] 105

[in] Please give measured viability at 28.5 h, 10 µM of the following entry: O=C1CCc2cc(S(=O)(=O)Nc3ccccc3Cc3ccccc3)ccc2N1
[out] 87

[in] Please supply the value of reported viability at 28.5 h, 10 µM for the item CC(C)C(=O)N1CCN(C(=O)Cn2c(-c3ccc(Cl)cc3)n[nH]c2=S)CC1
[out] 100

[in] Specify measured viability at 28.5 h, 10 µM for CCCC(=O)c1ccc(S(=O)(=O)N2CCCN(Cc3c(-c4ccccc4)nc4sccn34)CC2)cc1 .
[out] 119

[in] Please report the measured viability at 28.5 h, 10 µM for O=C([C@@H]1C[C@@H]2C=C[C@H]1C2)N1CCC(c2noc3cc(F)ccc23)CC1
[out] 76.5

[in] Look up and report measured viability at 28.5 h, 10 µM for this entry: O=C(CSc1nnc(-c2ccncc2)n1-c1ccccc1)Nc1ccnc2ccccc12
[out] 101

[in] Look up and report measured viability at 28.5 h, 10 µM for this entry: CN(C)Cc1cc(-c2ccccc2F)nn1CCNC(=O)C1CC1
[out] 90.5

[in] Given Cc1ccc(C(=O)N2CCCN(C(=O)CN3CCCC3)C2)cc1 , respond with its viability at 28.5 h, 10 µM.
[out] 87.2

###

test system: E. faecalis; construct: DSM 20478; test: microbe, parasite or virus in culture; design: Microbial growth in liquid dilution assay, OD600 relative to DMSO control; conditions: Enterococcus faecalis; estimated IC50; read-out: E. faecalis, IC50 (µM) estimate
metric: IC50

[in] Fill in IC50 for record O=C(c1ccc(-c2ccc(F)cc2)o1)N1C[C@H]2CC[C@](O)(c3ccc(F)cc3)[C@H]2C1 [c2e]
[out] > 30 µM

###

Measured viability at 28.5 h, 10 µM values are reported for all entries that follow.
test: in vitro; details: human, hela cells, % viability
Please state the figure in %; there is no need to write the unit.

compound | meas-value
CC(C)(C)c1cc(C(=O)N2CCn3cc(C(F)(F)F)nc3C2)[nH]n1 | 87.7
CN(C)CCCO/N=C1\CC2(CCCC2)c2ccccc21 | 80.7
CCC(C(=O)O)N1C(=O)C(=Cc2ccc(-c3ccccc3C(F)(F)F)o2)SC1=S (stereo not shown) | 99.4
Cc1sc(NC(=S)NC(=O)C(C)(C)C)c(C(N)=O)c1C | 97.1

Next up:
[in] Input C[C@@H](NC(=O)N(Cc1ccc([N+](=O)[O-])cc1)CC(C)(C)N)c1cccc2ccccc12 , output reported viability at 28.5 h, 10 µM.
[out] 102

###

test: in vitro; conditions: human, hela cells, % viability
Here the recorded viability at 28.5 h, 10 µM is given for each entry.
Field format: number, assumed %, no unit text.

See these solved cases before continuing.
molecule | value-units | meas-value
CCC(NC(=O)Nc1ccc(N2CCOCC2)nc1)c1cnn(CC)c1 (stereo not drawn) | % | 90.6
COc1cc2cc(CN(Cc3cccnc3)C(=O)Nc3ccc(F)cc3)c(=O)[nH]c2cc1OC | % | 93.3
CC(=O)Nc1ccc(C(=O)CSc2nnc(C)o2)cc1 | % | 107
Cc1ncsc1CCOc1nc2ccccc2nc1NC(C)C | % | 102
CC(C)Oc1cncc(Cl)n1 | % | 106
c1ccc(-c2nc(C3CCNCC3)n3ccncc23)cc1 | % | 100
COc1cc(NC(=O)c2ccccc2)c(C(=O)O)cc1OC | % | 89.9
COc1ccc(C(=O)O)cc1NC(=S)NC(=O)c1ccc(-c2cc(Cl)ccc2Cl)o1 | % | 104

[in] Look up viability at 28.5 h, 10 µM of CCc1cc(CNC(=O)C2CC3C=CC2C32CC2)on1 (stereo not drawn) and report it.
[out] 102

###

assay: in vitro; settings: human, hela cells, % viability
// reported viability at 28.5 h, 10 µM for each item listed
Give your result in % as a bare value.

The cases that follow already have their viability at 28.5 h, 10 µM on record.
compound | viability at 28.5 h, 10 µM (%)
O=C(O)c1ccc(CN2C(=O)c3ccc(C(=O)c4ccc(C(=O)O)cc4)cc3C2=O)cc1 [CBK262831] | 102
CC(C)C(=O)Nc1ccc2c(c1)C(=O)N(CCC(=O)O)C2=O [CBK286544] | 86.1
O=C1CCC(=O)N1CCOc1nccnc1-c1ccc2c(c1)OCO2 [CBK106698] | 92.3
COc1cc(C(=O)N2CCC3(CC2)CC(=O)c2cc(-c4ccc(N(C)C)cc4)ccc2O3)cc(OC)c1C [CBK170663] | 108
CCN1CCCCC1CNC(=O)c1n[nH]c2c1CCC2 (centres unmarked) [CBK282207] | 96.2

[in] Please list viability at 28.5 h, 10 µM recorded for the compound CSc1nnc(CCCNC(=O)c2cccc(C#N)c2)n1CC(C)C [CBK306023]
[out] 108

[in] Fill in reported viability at 28.5 h, 10 µM for this entry: COc1ccc(NC(=O)Cc2csc(NC(C)=O)n2)cc1 [CBK287650]
[out] 93.3

[in] Complete the entry with viability at 28.5 h, 10 µM for C(=C\c1nccnc1OC(c1ccccc1)c1ccccc1)/c1ccccc1 [CBK106878]
[out] 99.1

###

assay: in vitro; settings: human, hela cells, % viability
Measured viability at 28.5 h, 10 µM accompanies every entry in the list below.
A number alone suffices; assume %.

Below, 8 compounds whose answers are already recorded.
compound | metric | meas-value
Cc1cc(C(=O)Nc2nc(Cc3n[nH]c(=S)n3C)cs2)sc1C | viability at 28.5 h, 10 µM | 68.5
CCOC(=O)c1c(-c2ccccc2)csc1NS(=O)(=O)c1ccc(C)cc1 | viability at 28.5 h, 10 µM | 95.1
O=C1NCCCC12CCN(Cc1ccccc1N1CCCCC1)CC2 | viability at 28.5 h, 10 µM | 95.5
CN1C[C@@H](NC(=O)Nc2ccccc2)C[C@H]1c1nc(-c2cnccn2)no1 | viability at 28.5 h, 10 µM | 87.5
CCc1nnc(N/N=C/c2cc(Cl)c(OCc3ccccc3F)c(OC)c2)n1N [CBK278282C] | viability at 28.5 h, 10 µM | 85.4
O=C(O)c1cccc2c1C(=O)N(Cc1ccccc1)C2 | viability at 28.5 h, 10 µM | 91
Cc1ccc(S(=O)(=O)NC(C)(C)CSc2nnc[nH]2)cc1 | viability at 28.5 h, 10 µM | 81.5
COc1cccc(C(C(F)(F)F)P(C)(=O)O)c1 (stereo not drawn) | viability at 28.5 h, 10 µM | 96.8

Switching to the query record.
[in] Could you please provide reported viability at 28.5 h, 10 µM for O=C(Cn1cccc(C(=O)Nc2ccc(F)cc2)c1=O)NC1(c2ccccc2)CCCC1 ? Thanks!
[out] 96.3

These entries and their values trace back to paper PMC12040169.
